tested on: ACHN; test: NCI single-dose growth inhibition screen; assay type: cell-based; details: Homo sapiens; Renal Cancer ACHN; single dose 10^−5 M
Endpoint label: inhibition at 10 µM (%)
I only need the number, in %, no unit after it.

Worked cases, answers included:
# Compound, Observed measurement
rows = [
    ("COc1ccc(C=C2SC(=O)N(CCCC(=O)N3CCN(c4cc5c(cc4F)c(=O)c(C(=O)O)cn5C4CC4)CC3)C2=O)cc1 [3e]", 1.2),
    ("O=C(O)c1cn(C2CC2)c2cc(N3CCN(C(=O)CCCN4C(=O)S/C(=C\\c5ccc([N+](=O)[O-])cc5)C4=O)CC3)c(F)cc2c1=O [3k]", 0.1),
    ("O=C(O)c1cn(C2CC2)c2cc(N3CCN(C(=O)CCCN4C(=O)S/C(=C\\c5ccc(F)cc5)C4=O)CC3)c(F)cc2c1=O [3i]", 4.6),
    ("O=C(O)c1cn(C2CC2)c2cc(N3CCN(C(=O)CCCN4C(=O)SC(=Cc5ccccc5)C4=O)CC3)c(F)cc2c1=O [3a]", 14.5),
    ("O=C(O)c1cn(C2CC2)c2cc(N3CCN(C(=O)CCCN4C(=O)S/C(=C\\c5ccc(Cl)cc5)C4=O)CC3)c(F)cc2c1=O [3 h]", 0.7),
    ("O=C(O)c1cn(C2CC2)c2cc(N3CCN(C(=O)CCCN4C(=O)CSC4=O)CC3)c(F)cc2c1=O [3 L]", 0.6),
]

Could you share which inhibition at 10 µM value was measured for Cc1ccc(/C=C2\SC(=O)N(CCCC(=O)N3CCN(c4cc5c(cc4F)c(=O)c(C(=O)O)cn5C4CC4)CC3)C2=O)cc1 [3c] ?
2.3

Please report the recorded inhibition at 10 µM for O=C(O)c1cn(C2CC2)c2cc(N3CCN(C(=O)CCCN4C(=O)SC(=Cc5cccc([N+](=O)[O-])c5)C4=O)CC3)c(F)cc2c1=O [3d] .
4.2

Reported inhibition at 10 µM, compound O=C(O)c1cn(C2CC2)c2cc(N3CCN(C(=O)CCCN4C(=O)SC(=Cc5cccc6ccccc56)C4=O)CC3)c(F)cc2c1=O [3j] : ____
11.5
